Data provenance: paper PMC4012460

Measured inhibition rate (IR%) on K562 cells, listed per entry.
Test system: K562 cells
Design: dose or concentration left out as unconfirmed
reported conditions: MTT, 24 h at 37 °C, OD 570 nm, OD means of three wells
endpoint label: inhibition rate (IR%) on K562 cells

                                   compound  test_system  reported
0  C[C@]12CC[C@H](O)[C@H](O1)c1c(cc3c(c1O)C(=O)c1c(O)cc(O)cc1C3=O)O2   K562 cells      25.5
1  CCCCC[C@H](OC)c1c(O)cc2c(c1O)C(=O)c1c(O)cc(O)cc1C2=O [Compound 10, 1′-O-Methylaverantin]   K562 cells      11.6
2  CCCCC[C@H](O)c1c(O)cc2c(c1O)C(=O)c1c(O)cc(O)cc1C2=O [Compound 11, Averantin]   K562 cells      51.9
3  C[C@]12CCC[C@H](O1)c1c(cc3c(c1O)C(=O)c1c(O)cc(O)cc1C3=O)O2   K562 cells      37.9

====

Test system: BGC-823 cells
reported conditions: read-out: half-inhibitory concentration (IC50) for BGC-823; MTT, 24 h; value in brackets, molar
pIC50: −log10 of the molar value.
endpoint label: pIC50

>>> print(df.to_string())
                                   compound  reported
0  CCCCCCCCC[C@@H](O)CC(=O)N[C@@H](CC(N)=O)C(=O)N[C@@H](CCC(N)=O)C(=O)N[C@H](C=O)CC(C)C [Compound 8, Fellutamide B]      3.85
